target: glucan synthase (GS) prepared from Candida albicans MY1055 (Candida albicans); construct: Extraction of GS activity from membranes was performed at a protein concentration of 5 mg/mL in extraction buffer; endogenous in cells; assay: Glucan synthase inhibition (polymerization assay, 96-well, 3H-UDPG incorporation); conditions: glucan synthase from C. albicans MY1055
Sequence (O13428 1-1897): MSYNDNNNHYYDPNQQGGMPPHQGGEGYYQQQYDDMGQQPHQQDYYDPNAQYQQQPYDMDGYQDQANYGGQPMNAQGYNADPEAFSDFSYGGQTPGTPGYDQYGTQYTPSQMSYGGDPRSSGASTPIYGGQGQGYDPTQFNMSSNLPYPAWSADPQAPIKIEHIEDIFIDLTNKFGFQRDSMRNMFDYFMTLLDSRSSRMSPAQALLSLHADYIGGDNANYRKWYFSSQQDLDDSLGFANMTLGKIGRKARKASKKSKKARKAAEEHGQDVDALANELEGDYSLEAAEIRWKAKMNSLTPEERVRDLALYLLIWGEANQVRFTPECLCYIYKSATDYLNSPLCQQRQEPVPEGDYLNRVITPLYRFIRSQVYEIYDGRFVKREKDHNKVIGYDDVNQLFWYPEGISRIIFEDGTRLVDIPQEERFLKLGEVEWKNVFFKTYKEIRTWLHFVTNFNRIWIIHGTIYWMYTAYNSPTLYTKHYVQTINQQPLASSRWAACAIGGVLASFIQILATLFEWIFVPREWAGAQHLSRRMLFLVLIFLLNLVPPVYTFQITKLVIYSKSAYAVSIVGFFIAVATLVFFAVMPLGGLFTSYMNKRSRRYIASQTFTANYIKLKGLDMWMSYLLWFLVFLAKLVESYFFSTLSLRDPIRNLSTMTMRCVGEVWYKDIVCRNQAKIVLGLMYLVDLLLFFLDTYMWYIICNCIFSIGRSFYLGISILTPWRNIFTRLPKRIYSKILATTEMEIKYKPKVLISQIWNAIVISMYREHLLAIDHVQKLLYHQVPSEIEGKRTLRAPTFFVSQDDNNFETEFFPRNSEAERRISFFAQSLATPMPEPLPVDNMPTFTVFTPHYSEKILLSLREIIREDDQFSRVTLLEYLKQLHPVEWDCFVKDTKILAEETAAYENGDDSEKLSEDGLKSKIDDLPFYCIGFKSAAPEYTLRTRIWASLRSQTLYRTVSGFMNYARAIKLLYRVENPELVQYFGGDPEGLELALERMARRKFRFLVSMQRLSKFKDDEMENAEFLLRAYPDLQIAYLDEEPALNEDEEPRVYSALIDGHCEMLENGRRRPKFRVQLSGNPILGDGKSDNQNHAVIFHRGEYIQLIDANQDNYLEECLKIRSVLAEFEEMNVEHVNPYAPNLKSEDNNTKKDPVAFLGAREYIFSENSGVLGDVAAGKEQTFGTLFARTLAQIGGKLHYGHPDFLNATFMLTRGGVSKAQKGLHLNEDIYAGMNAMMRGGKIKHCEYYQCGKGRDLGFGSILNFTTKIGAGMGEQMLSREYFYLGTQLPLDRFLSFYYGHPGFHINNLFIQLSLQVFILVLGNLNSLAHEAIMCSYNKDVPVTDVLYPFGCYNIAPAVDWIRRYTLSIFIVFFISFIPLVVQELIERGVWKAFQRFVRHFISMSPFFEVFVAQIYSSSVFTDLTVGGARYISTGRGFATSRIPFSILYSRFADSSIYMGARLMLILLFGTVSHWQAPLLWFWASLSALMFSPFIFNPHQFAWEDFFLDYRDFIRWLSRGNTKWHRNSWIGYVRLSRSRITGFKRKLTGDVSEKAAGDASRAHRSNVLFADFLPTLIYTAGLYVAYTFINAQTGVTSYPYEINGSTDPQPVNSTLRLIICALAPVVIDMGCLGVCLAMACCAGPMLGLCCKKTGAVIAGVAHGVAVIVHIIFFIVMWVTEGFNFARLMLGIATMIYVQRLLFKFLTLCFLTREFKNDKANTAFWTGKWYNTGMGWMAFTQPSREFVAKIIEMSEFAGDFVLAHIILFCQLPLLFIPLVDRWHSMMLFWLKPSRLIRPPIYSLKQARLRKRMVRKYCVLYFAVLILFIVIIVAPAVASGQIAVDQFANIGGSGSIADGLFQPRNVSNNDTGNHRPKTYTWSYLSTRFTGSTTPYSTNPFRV
Sequence (O42825 whole entry partner): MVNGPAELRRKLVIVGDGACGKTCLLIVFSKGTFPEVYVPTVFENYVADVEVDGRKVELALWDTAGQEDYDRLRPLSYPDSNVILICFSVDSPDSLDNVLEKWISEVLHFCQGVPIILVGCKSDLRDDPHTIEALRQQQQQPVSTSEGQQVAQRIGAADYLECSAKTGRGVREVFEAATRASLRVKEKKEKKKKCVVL
pIC50: −log10 of the molar value.
readout.name: pIC50

{"columns": ["compound", "assay.target", "pIC50"],
 "data": [
  ["CC(=O)O[C@@H]1C[C@@]23COC[C@](C)(C2CC[C@H]2C3=CC[C@@]3(C)[C@H](C(=O)O)[C@@](C)([C@H](C)C(C)C)CC[C@]23C)[C@H]1OCCNC(=N)NC(C)(C)C (stereo partly drawn)", "glucan synthase (GS) prepared from Candida albicans MY1055 (Candida albicans)", 7.48],
  ["CC(=O)O[C@@H]1C[C@@]23COC[C@@](C)([C@@H]2CC[C@H]2C3=CC(=O)[C@@]3(C)[C@H](C(=O)O)[C@@](C)([C@H](C)C(C)C)CC[C@]23C)[C@H]1OC[C@@](C)(N)C(C)C", "glucan synthase (GS) prepared from Candida albicans MY1055 (Candida albicans)", 7.69],
  ["CC(=O)O[C@@H]1C[C@@]23COC[C@](C)([C@@H]2CC[C@H]2C3=CC(=O)[C@@]3(C)[C@H](C(=O)O)[C@@](C)([C@H](C)C(C)C)CC[C@]23C)[C@H]1OCCNC(=N)N", "glucan synthase (GS) prepared from Candida albicans MY1055 (Candida albicans)", 7.54]
]}

P = CN[C@](C)(CO[C@H]1[C@H](OC(C)=O)C[C@@]23COC[C@@]1(C)[C@@H]2CC[C@H]1C3=CC(=O)[C@@]2(C)[C@H](C(=O)O)[C@@](C)([C@H](C)C(C)C)CC[C@]12C)C(C)C
Q = CC(=O)O[C@@H]1C[C@@]23COC[C@](C)([C@@H]2CC[C@H]2C3=CC[C@@]3(C)[C@H](C(=O)O)[C@@](C)([C@H](C)C(C)C)CC[C@]23C)[C@H]1OCC(O)(CO)CO
R = CC(=O)O[C@@H]1C[C@@]23COC[C@](C)([C@@H]2CC[C@H]2C3=CC(=O)[C@@]3(C)[C@H](C(=O)O)[C@@](C)([C@H](C)C(C)C)CC[C@]23C)[C@H]1OCC(C)NCc1ccc(CO)o1 (stereo partly drawn)
S = CC(=O)O[C@@H]1C[C@@]23COC[C@](C)(C2CC[C@H]2C3=CC[C@@]3(C)[C@H](C(=O)O)[C@@](C)([C@H](C)C(C)C)CC[C@]23C)[C@H]1OCC(C)N (stereo partly drawn)
Could you please sort these 4 entries by pIC50 from high to low? To answer, arrange all of the labels according to the requested order.
P, S, R, Q
